target: Cytochrome P450 2C19 (Homo sapiens, UniProt P33261)
Sequence (P33261 whole entry): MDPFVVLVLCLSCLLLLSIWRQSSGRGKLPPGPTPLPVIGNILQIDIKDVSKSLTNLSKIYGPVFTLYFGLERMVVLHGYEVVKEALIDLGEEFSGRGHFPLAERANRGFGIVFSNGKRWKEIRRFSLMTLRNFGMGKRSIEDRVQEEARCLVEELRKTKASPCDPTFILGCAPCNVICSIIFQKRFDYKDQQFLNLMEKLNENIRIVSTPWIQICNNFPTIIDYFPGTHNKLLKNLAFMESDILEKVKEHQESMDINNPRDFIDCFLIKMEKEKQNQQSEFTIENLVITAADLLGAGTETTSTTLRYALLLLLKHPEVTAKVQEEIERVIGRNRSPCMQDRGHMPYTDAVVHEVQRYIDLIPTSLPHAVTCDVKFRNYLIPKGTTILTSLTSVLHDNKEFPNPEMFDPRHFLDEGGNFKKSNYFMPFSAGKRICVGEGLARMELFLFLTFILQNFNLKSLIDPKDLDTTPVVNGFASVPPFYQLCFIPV
Exercise: for every item that follows, state its recorded IC50.
Give bare numbers, in µM.

Some entries whose results are on file:
{"columns": ["Smiles", "Value Units", "Data Value"],
 "data": [
  ["COc1ccc2c(c1)[C@]1(C[C@H]1c1ccc3c(/C=C/c4ccc([C@H](C)N5CCOCC5)cc4)n[nH]c3c1)C(=O)N2C", "µM", 0.9],
  ["CN1CCN(c2ccc(/C=C/c3n[nH]c4cc([C@@H]5C[C@@]56C(=O)N(C)c5ccccc56)ccc34)cn2)CC1", "µM", 1.2]
]}

Report IC50 for every entry below.
1. COc1ccc2c(c1)[C@]1(C[C@H]1c1ccc3c(/C=C/c4ccc(CN5CCOCC5)cc4)n[nH]c3c1)C(=O)N2
2. COc1ccc2c(c1)[C@]1(C[C@H]1c1ccc3c(/C=C/c4ccc(CN5CCCCC5)cc4)n[nH]c3c1)C(=O)N2
3. CC(C)N1CCC(Oc2ccc(/C=C/c3n[nH]c4cc([C@@H]5C[C@@]56C(=O)Nc5ccccc56)ccc34)cc2)CC1

1: 1.2; 2: 1.4; 3: 1.9

###

test: AUC in athymic CD1 nude mouse at 25 mg/kg, po by LC/MS/MS analysis; type: ADME, organism-based; design: dose 25 mg/kg, route oral; conditions: plasma
Measured Quantity: log10(AUC) (log10 of the value in ng·h/mL)
The common logarithm of AUC in ng·h/mL is what is listed.

{"columns": ["Smiles", "log10(AUC)"],
 "data": [
  ["COc1ccc2c(c1)[C@]1(C[C@H]1c1ccc3c(/C=C/c4ccc(CN5CCOCC5)cc4)n[nH]c3c1)C(=O)N2", 3.98],
  ["CN(C)Cc1ccc(/C=C/c2n[nH]c3cc([C@@H]4C[C@@]45C(=O)Nc4ccccc45)ccc23)cc1", 2.41],
  ["CC(C)N1CCC(Oc2ccc(/C=C/c3n[nH]c4cc([C@@H]5C[C@@]56C(=O)Nc5ccccc56)ccc34)cc2)CC1", 3.15]
]}

Hi! Can you tell me log10(AUC) for each of these compounds?
1. Cc1ccc2c(c1)[C@]1(C[C@H]1c1ccc3c(/C=C/c4ccc(CN5CCOCC5)cc4)n[nH]c3c1)C(=O)N2
2. COc1ccc2c(c1)[C@]1(C[C@H]1c1ccc3c(/C=C/c4ccc(CN5C[C@@H](C)O[C@@H](C)C5)cc4)n[nH]c3c1)C(=O)N2C
3. CN(C)Cc1ccc(/C=C/c2n[nH]c3cc([C@@H]4C[C@@]45C(=O)N(C)c4ccccc45)ccc23)cc1
4. O=C1Nc2ccccc2[C@]12C[C@H]2c1ccc2c(/C=C/c3ccc(CN4CCOCC4)cc3)n[nH]c2c1

[3.74, 3.83, 3.04, 4.00]

###

assay: AUC(infinity) in Sprague-Dawley rat at 5 mg/kg, po; format: ADME, organism-based; set-up: dose 5 mg/kg, route oral, time infinity; conditions: plasma
Answer each item with its documented log10(AUC(0-inf)).
Hello, just confirming the data are log10 of AUC(0-inf) with units of ng·h/mL.

The cases that follow already have their log10(AUC(0-inf)) on record.
{"columns": ["Molecule", "Measured Quantity", "Data Value"],
 "data": [
  ["O=C1Nc2ccccc2[C@]12C[C@H]2c1ccc2c(/C=C/c3ccc(CN4CCOCC4)cc3)n[nH]c2c1", "log10(AUC(0-inf))", 2.68],
  ["COc1ccc2c(c1)[C@]1(C[C@H]1c1ccc3c(/C=C/c4ccc(CN5CCOCC5)cc4)n[nH]c3c1)C(=O)N2C", "log10(AUC(0-inf))", 2.84],
  ["Cc1ccc2c(c1)[C@]1(C[C@H]1c1ccc3c(/C=C/c4ccc(CN5CCOCC5)cc4)n[nH]c3c1)C(=O)N2", "log10(AUC(0-inf))", 2.61],
  ["COc1ccc2c(c1)[C@]1(C[C@H]1c1ccc3c(/C=C/c4ccc(CN5CCOCC5)cc4)n[nH]c3c1)C(=O)N2", "log10(AUC(0-inf))", 2.43],
  ["C[C@@H]1CN(Cc2ccc(/C=C/c3n[nH]c4cc([C@@H]5C[C@@]56C(=O)Nc5ccccc56)ccc34)cc2)C[C@H](C)O1", "log10(AUC(0-inf))", 3.45]
]}

Looking for the measured log10(AUC(0-inf)) of COc1ccc2c(c1)[C@]1(C[C@H]1c1ccc3c(/C=C/c4ccc(CN5C[C@@H](C)O[C@@H](C)C5)cc4)n[nH]c3c1)C(=O)N2 [OCIFISERTIB] , can you help?
2.88

###

test: Half life in Sprague-Dawley rat at 1 mg/kg, iv; format: ADME, organism-based; design: dose 1 mg/kg, route intravenous; conditions: in vivo
Measured Quantity: half-life

{"columns": ["Smiles", "half-life"],
 "data": [
  ["O=C1Nc2ccccc2[C@]12C[C@H]2c1ccc2c(/C=C/c3ccc(CN4CCOCC4)cc3)n[nH]c2c1", "1.4 h"],
  ["COc1ccc2c(c1)[C@]1(C[C@H]1c1ccc3c(/C=C/c4ccc(CN5CCOCC5)cc4)n[nH]c3c1)C(=O)N2C", "1.3 h"],
  ["C[C@@H]1CN(Cc2ccc(/C=C/c3n[nH]c4cc([C@@H]5C[C@@]56C(=O)Nc5ccccc56)ccc34)cc2)C[C@H](C)O1", "3.9 h"],
  ["COc1ccc2c(c1)[C@]1(C[C@H]1c1ccc3c(/C=C/c4ccc(CN5CCOCC5)cc4)n[nH]c3c1)C(=O)N2", "1.1 h"]
]}

# map each compound to its half-life
1. COc1ccc2c(c1)[C@]1(C[C@H]1c1ccc3c(/C=C/c4ccc(CN5C[C@@H](C)O[C@@H](C)C5)cc4)n[nH]c3c1)C(=O)N2
2. Cc1ccc2c(c1)[C@]1(C[C@H]1c1ccc3c(/C=C/c4ccc(CN5CCOCC5)cc4)n[nH]c3c1)C(=O)N2

1. 2 h
2. 1.6 h

###

Task for the reader: assign each of the following compounds its reported half-life.
assay: Half life in beagle dog at 1 mg/kg, iv; format: ADME, organism-based, Canis lupus familiaris; design: dose 1 mg/kg, route intravenous; conditions: in vivo
Numbers only, in min.

{"columns": ["Smiles", "Data Value"],
 "data": [
  ["Cc1ccc2c(c1)[C@]1(C[C@H]1c1ccc3c(/C=C/c4ccc(CN5CCOCC5)cc4)n[nH]c3c1)C(=O)N2", 420],
  ["COc1ccc2c(c1)[C@]1(C[C@H]1c1ccc3c(/C=C/c4ccc(CN5C[C@@H](C)O[C@@H](C)C5)cc4)n[nH]c3c1)C(=O)N2", 126],
  ["O=C1Nc2ccccc2[C@]12C[C@H]2c1ccc2c(/C=C/c3ccc(CN4CCOCC4)cc3)n[nH]c2c1", 192],
  ["COc1ccc2c(c1)[C@]1(C[C@H]1c1ccc3c(/C=C/c4ccc(CN5CCOCC5)cc4)n[nH]c3c1)C(=O)N2C", 180],
  ["COc1ccc2c(c1)[C@]1(C[C@H]1c1ccc3c(/C=C/c4ccc(CN5CCOCC5)cc4)n[nH]c3c1)C(=O)N2", 52.2]
]}

half-life lookup needed for C[C@@H]1CN(Cc2ccc(/C=C/c3n[nH]c4cc([C@@H]5C[C@@]56C(=O)Nc5ccccc56)ccc34)cc2)C[C@H](C)O1 , thanks.
270

###

target: Cytochrome P450 3A4 (Homo sapiens, UniProt P08684); assay: Inhibition of CYP3A4 (unknown origin) using BFC as substrate by fluorescence assay
Sequence (P08684 whole entry): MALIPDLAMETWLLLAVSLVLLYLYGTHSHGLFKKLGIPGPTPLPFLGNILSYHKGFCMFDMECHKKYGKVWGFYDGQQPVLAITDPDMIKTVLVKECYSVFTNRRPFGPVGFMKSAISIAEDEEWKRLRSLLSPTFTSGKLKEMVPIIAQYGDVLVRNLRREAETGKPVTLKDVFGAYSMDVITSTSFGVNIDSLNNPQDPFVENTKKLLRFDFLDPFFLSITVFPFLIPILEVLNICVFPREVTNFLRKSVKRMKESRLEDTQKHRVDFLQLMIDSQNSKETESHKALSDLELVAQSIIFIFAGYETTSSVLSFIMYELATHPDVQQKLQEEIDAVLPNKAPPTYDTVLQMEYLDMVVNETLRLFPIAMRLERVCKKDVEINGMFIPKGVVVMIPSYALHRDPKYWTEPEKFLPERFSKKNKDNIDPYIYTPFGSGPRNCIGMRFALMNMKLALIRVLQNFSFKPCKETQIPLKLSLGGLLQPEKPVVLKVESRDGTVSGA
For each entry below, report its IC50 value.
Numbers only, in µM.

The examples below pair each entry with its known result.
{"columns": ["Smiles", "Data Value"],
 "data": [
  ["COc1ccc2c(c1)[C@]1(C[C@H]1c1ccc3c(/C=C/c4ccc(CN5[C@H](C)CN(C)C[C@@H]5C)cc4)n[nH]c3c1)C(=O)N2", 10],
  ["COc1ccc2c(c1)[C@]1(C[C@H]1c1ccc3c(/C=C/c4ccc([C@H](C)N5CCOCC5)cc4)n[nH]c3c1)C(=O)N2C", 0.45],
  ["CN(C)Cc1ccc(/C=C/c2n[nH]c3cc([C@@H]4C[C@@]45C(=O)N(C)c4ccccc45)ccc23)cc1", 2.3],
  ["O=C1Nc2ccccc2[C@]12C[C@H]2c1ccc2c(/C=C/c3ccc(CN4CCOCC4)cc3)n[nH]c2c1", 6.3]
]}

Now consider a different compound.
What measured IC50 goes with COc1ccc2c(c1)[C@]1(C[C@H]1c1ccc3c(/C=C/c4ccc(CN5C[C@@H](C)O[C@@H](C)C5)cc4)n[nH]c3c1)C(=O)N2C ?
10

###

tested on: Canis familiaris; assay: Clearance in beagle dog at 1 mg/kg, iv; format: ADME, organism-based, Canis lupus familiaris; set-up: dose 1 mg/kg, route intravenous; details: in vivo
Assignment: determine reported clearance for the given compounds.
Give bare numbers, in mL/min/kg.

Items follow; give clearance for each.
1. COc1ccc2c(c1)[C@]1(C[C@H]1c1ccc3c(/C=C/c4ccc(CN5CCOCC5)cc4)n[nH]c3c1)C(=O)N2
2. Cc1ccc2c(c1)[C@]1(C[C@H]1c1ccc3c(/C=C/c4ccc(CN5CCOCC5)cc4)n[nH]c3c1)C(=O)N2
3. COc1ccc2c(c1)[C@]1(C[C@H]1c1ccc3c(/C=C/c4ccc(CN5C[C@@H](C)O[C@@H](C)C5)cc4)n[nH]c3c1)C(=O)N2
4. O=C1Nc2ccccc2[C@]12C[C@H]2c1ccc2c(/C=C/c3ccc(CN4CCOCC4)cc3)n[nH]c2c1

41.7
23.3
16
33.3

Reference source for all entries: ChEMBL document CHEMBL3407349
